Kindly supply the reported Percent Mortality of Cotton Aphid on Cotton Plants values for the records listed here.
Test system: cotton aphid (Aphis gossypii)
Assay: Cotton aphid test in the same manner, more definitive percent mortality at selected rates and exposure times (Table 3)
Format: in vivo
Settings: 100 ppm; 72 hours exposure
Could you give me the number in %? Just the number is fine.

Input CN1CCN(C2Cc3ccccc3Sc3c(F)ccc(F)c32)CC1 (stereo not drawn) . Output Percent Mortality of Cotton Aphid on Cotton Plants: 65

What the record says about CN1CCN(C2Cc3cc(Cl)ccc3Sc3cc(Cl)ccc32)CC1 (stereo not drawn) : Percent Mortality of Cotton Aphid on Cotton Plants is 48

Value of measured Percent Mortality of Cotton Aphid on Cotton Plants for the entry `CN1CCC(=C2c3ccccc3COc3ccccc32)CC1.Cl` : 84

// CN1CCN(C2Cc3cc(F)ccc3Sc3ccccc32)CC1 (stereo not drawn) : Percent Mortality of Cotton Aphid on Cotton Plants value = 85

Entry COc1cccc2c1Sc1ccccc1CC2N1CCN(C)CC1 (stereo not drawn) — recorded Percent Mortality of Cotton Aphid on Cotton Plants = 33

The compound CC(C)c1ccc2c(c1)C(N1CCN(C)CC1)Cc1ccc(F)cc1S2.O=C(O)/C=C\C(=O)O (stereo not drawn) showed Percent Mortality of Cotton Aphid on Cotton Plants equal to 95

Percent Mortality of Cotton Aphid on Cotton Plants reported for this compound COc1ccc2c(c1)Sc1ccccc1CC2N1CCN(C)CC1 (stereo not drawn) : 60

Field Percent Mortality of Cotton Aphid on Cotton Plants (entry Cc1cc2c(cc1F)Sc1ccccc1CC2N1CCN(C)CC1 (stereo not drawn) ) reads 94

The compound listed as CSc1ccc2c(c1)C(N1CCN(C)CC1)Cc1ccc(F)cc1S2 (stereo not drawn) has a reported Percent Mortality of Cotton Aphid on Cotton Plants of 96
